molecular target: helicase domain of the Pol θ protein (Homo sapiens, UniProt O75417); construct: The helicase domain of the Pol θ protein was purified from insect protein expression system; made in house; host or cells: insect protein expression system; test: Biochemical Activity Assay (ADP Glo Assay) of Pol θ inhibitor, ATPase activity; conditions: ADP-Glo assay, ATPase activity of Pol θ helicase domain, ssDNA substrate; read-out: Biochemical assay IC50
Sequence (O75417 102-554 limits assumed): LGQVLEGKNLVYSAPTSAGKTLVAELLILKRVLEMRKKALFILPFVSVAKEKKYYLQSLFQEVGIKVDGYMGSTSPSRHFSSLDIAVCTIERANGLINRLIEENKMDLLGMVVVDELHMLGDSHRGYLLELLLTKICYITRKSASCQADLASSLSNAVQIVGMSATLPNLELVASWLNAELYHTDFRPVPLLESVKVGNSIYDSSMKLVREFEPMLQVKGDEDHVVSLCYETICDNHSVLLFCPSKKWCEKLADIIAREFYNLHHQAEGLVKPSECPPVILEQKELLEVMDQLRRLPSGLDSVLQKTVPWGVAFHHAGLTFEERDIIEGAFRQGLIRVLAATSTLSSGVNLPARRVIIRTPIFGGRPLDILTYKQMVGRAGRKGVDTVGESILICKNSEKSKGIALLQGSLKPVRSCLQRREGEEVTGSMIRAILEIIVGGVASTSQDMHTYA
pIC50: −log10 of the molar value.
reported-metric: pIC50

Examples with their reported pIC50 follow.
COc1cnc(Cl)cc1-c1cc(C)ncc1C(=O)Nc1nc2ncc(C3=CCC(O)CC3)cc2s1 (stereo not shown) [Example 3] | 8.60
COc1cnc(Cl)cc1-c1cc(C)ncc1C(=O)Nc1nc2cnc(-c3cncn3C)cc2s1 [Example 171] | 8.31

a: COc1cnc(Cl)cc1-c1cc(C)ncc1C(=O)Nc1nc2ccc(-c3ccncc3C)nc2s1 [Example 83]
b: COc1cnc(Cl)cc1-c1cc(C)ncc1C(=O)Nc1nc2cc(F)c(N3CCC(O)CC3)cc2s1 [Example 119]
Q: I'd appreciate it if you could identify which of a and b has the greater pIC50. When you have decided, please share the label of that item.
Result: a
(a: 8.49, b: 8.26)

---

Recorded measurements of IC50, one per entry
target: helicase domain of the Pol θ protein (Homo sapiens, UniProt O75417); construct: The helicase domain of the Pol θ protein was purified from insect protein expression system; made in house; host or cells: insect protein expression system; experiment: Biochemical Activity Assay (ADP Glo Assay) of Pol θ inhibitor, ATPase activity; details: Biochemical assay IC50 (nM)
Just the number please, in nM, no unit attached.

Examples with their reported IC50 follow.
COc1cnc(Cl)cc1-c1cc(C)ncc1C(=O)Nc1nc2[nH]c(=O)c(-c3c(C)cnn3C)cc2s1 | 1.63
COc1cnc(C(F)F)cc1-c1cc(C)ncc1C(=O)Nc1nc2cnc(-c3nncn3C)cc2s1 | 31.1
COc1cnc(Cl)cc1-c1cc(C)ncc1C(=O)Nc1nc2cc3c(cc2s1)C(=O)N(C)CCC3 | 21.1
COc1cnc(Cl)cc1-c1cc(C)ncc1C(=O)Nc1nc2nc(OC)c(-c3c(C)cnn3C)cc2s1 | 13.6
COc1cnc(Cl)cc1-c1cc(C)ncc1C(=O)Nc1nc2cnc(N3CCC(NS(C)(=O)=O)CC3)cc2s1 | 6.18

Q: Param item = COc1cnc(Cl)cc1-c1cc(C)ncc1C(=O)Nc1nc2nnc(C3=CCC(O)CC3)cc2s1 (centres unmarked) ; retrieve measured IC50.
Result: 3.41

Q: Param item = CCP(=O)(CC)c1ccc(-c2cnc3nc(NC(=O)c4cnc(C)cc4-c4cc(Cl)ncc4OC)sc3c2)cc1 ; retrieve measured IC50.
Result: 5.58

Q: Param item = COc1cnc(Cl)cc1-c1cc(C)ncc1C(=O)Nc1nc2ccc(-c3c(C)nnn3C)cc2s1 ; retrieve measured IC50.
Result: 4.36

Q: Param item = COc1cnc(Cl)cc1-c1cc(C)ncc1C(=O)Nc1nc2cnc(-c3c(C)cnn3CCN(C)C)cc2s1 ; retrieve measured IC50.
Result: 3.31

Q: Param item = COc1cnc(Cl)cc1-c1cc(C)ncc1C(=O)Nc1nc2c(=O)[nH]c(-c3c(C)cnn3C)cc2s1 ; retrieve measured IC50.
Result: 2.43

Q: Param item = CCP(=O)(CC)c1ccc(-c2ccc3nc(NC(=O)c4cnc(C)cc4-c4cc(Cl)ncc4OC)sc3c2)cc1 ; retrieve measured IC50.
Result: 8.75

Q: Param item = COc1cnc(Cl)cc1-c1cc(C)ncc1C(=O)Nc1nc2ccc(N3CCC(O)C(C)(C)C3)nc2s1 (centres unmarked) ; retrieve measured IC50.
Result: 10.3

Q: Param item = COc1cnc(Cl)cc1-c1cc(C)ncc1C(=O)Nc1nc2cc3c(cc2s1)N(c1ccnn1C)CCO3 ; retrieve measured IC50.
Result: 22.9

Q: Param item = COc1cnc(Cl)cc1-c1cc(C)ncc1C(=O)Nc1nc2cnc(-c3c(C(F)F)nnn3C)cc2s1 ; retrieve measured IC50.
Result: 4.02

These entries and their values trace back to patent EP4585599A1.
